# System: K4 kissing-loop RNA reporter;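 also: bound reporter read as fluorescence of individual clusters on recovered sequencing chips by microscopy, with normalized cluster intensities fitted with a binding model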
# ASSAY_DETAILS: apparent KD of K4 kissing-loop reporter; higher = weaker reporter binding
# EXPERIMENTAL_PARAMETERS: Eterna round: R107; input ligand: arginine 13.2 mM
Measured apparent KD of K4 kissing-loop reporter, listed per entry.

SEQUENCE_ENTRY: AAGGCACGGCUUCGGCCGUGCCAAAUAGAUACCAGCAUAAUAAUAUGCCCUUGGCAGCUAAAUAGAAAUUCAGUGAUGUUGGAUA [SS Theo A Tesla 2.1]
U: nM
apparent KD of K4 kissing-loop reporter: 444

SEQUENCE_ENTRY: GCUAAGGAGUGAUGUUCCAAGUGAUGUUAACGAGGACCGGUACGGCCGCCACUCGAUACGGCCGGAAAGUAAGAUAAACUACAGU [Same State - Tryptophan A (Freestyle 4)]
U: nM
apparent KD of K4 kissing-loop reporter: 59.8

SEQUENCE_ENTRY: CGUUCAUCCUAGGCGUGAGUGAUGUUUACCCGAGGACCGGUACGGCCGCCACUCGUAUGGCGAGAGUUUAGCCAUUUCCAAUAUA [theeternabot_exclusion_KL_Trp_A_17]
U: nM
apparent KD of K4 kissing-loop reporter: 403

SEQUENCE_ENTRY: UGGAUAUCGUUUAGUCUGGUGAGGUCAGAUACCAGACUAGCGAUAGUCCCUUGGCAGCUGAUUAUGAUUGAGUGAUGUUCAAUCG [Theo A Ex t9a]
U: nM
apparent KD of K4 kissing-loop reporter: 154

SEQUENCE_ENTRY: GUCCCGAGUGAUGUUCGGGUCGUUCGGGAAGGAGCGCCCGCAAGGGCAGGUAGGUCGCCCGGAUCUCUCAGGUAACUGAGAGACC [#2 Same State - Arginine A Attempt #28 (HarryS)]
U: nM
apparent KD of K4 kissing-loop reporter: 319

SEQUENCE_ENTRY: AGCAGUCACUCGAAAACCAUCGAAGAUGGACGAGGACCGGUACGGCCGCCACUCGGAGUGAUGUUCCGAAGACUGCAAAAUAAAA [#SwitchBubble 16]
U: nM
apparent KD of K4 kissing-loop reporter: 402
